Sourced from ChEMBL document CHEMBL1201862

Protocol notes: C. albicans growth with fluconazole, confirmation, fluorescence, retest (AID 2467)
Type: functional, cell-based
The source made the active and inactive calls.
Value type: EC50

Entry `Cc1[nH]c2ccccc2c1C(=O)CCl` : reported EC50 = ? 0.497 µM (active)

Try CCCC(=O)NC(c1ccc(C)cc1)c1ccc2cccnc2c1O (stereo not given) next. 0.449 µM (active)

Try `CN1/C(=C\C(=O)C[n+]2ccc(C(=O)c3ccccc3)cc2)C(C)(C)c2ccccc21` next. 3.12 µM (active)

Try `CCc1nn(CCCC(=O)NCc2ccc(C)cc2)c(=O)c2cc3occc3n12` next. > 38 µM (not active)

Try Cc1ccnc(NC(c2cccnc2)c2ccc3cccnc3c2O)c1 (stereo not given) next. > 38 µM (not active)

====

Tested on: UniProt:P33261
Sequence (P33261 whole entry): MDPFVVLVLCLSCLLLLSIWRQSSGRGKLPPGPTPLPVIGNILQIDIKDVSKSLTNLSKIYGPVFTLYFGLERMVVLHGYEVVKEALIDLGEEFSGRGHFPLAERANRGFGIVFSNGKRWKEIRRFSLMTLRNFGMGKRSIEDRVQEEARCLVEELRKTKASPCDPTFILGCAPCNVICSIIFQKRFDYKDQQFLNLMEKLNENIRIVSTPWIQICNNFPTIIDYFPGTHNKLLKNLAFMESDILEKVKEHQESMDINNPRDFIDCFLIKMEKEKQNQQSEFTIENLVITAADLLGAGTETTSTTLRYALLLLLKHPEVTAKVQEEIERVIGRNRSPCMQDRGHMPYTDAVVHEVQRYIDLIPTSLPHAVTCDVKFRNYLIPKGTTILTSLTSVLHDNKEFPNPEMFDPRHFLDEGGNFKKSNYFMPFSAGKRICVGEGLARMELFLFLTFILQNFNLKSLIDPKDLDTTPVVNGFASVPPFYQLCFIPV
Protocol notes: Cytochrome panel assay with activity outcomes. Panel member name: p450-cyp2c19 Compounds with AC50 equal or less than 10 uM are considered active
Type: functional
Test parameters: read-out: AC50
I'd be grateful if you could share measured AC50 for these entries.

Entry `COc1cccc(-c2cc3nc(-c4ccccc4)cc(N4CCC5(CC4)OCCO5)n3n2)c1` : reported AC50 = ? 2 µM (inconclusive)

Try `O=C(c1cnccn1)N1CCC2(CCCN(c3cccc(-c4ccccc4)c3)C2)CC1` next. 7.94 µM (inconclusive)

Try COc1ccc(-n2ncc3c(NCC4CCCO4)ncnc32)cc1 (configuration not stated) next. 8.91 µM (inconclusive)

Try `COc1ccccc1CNc1cc(-c2cccnc2)ncn1` next. 15.8 µM (inconclusive)

Try `c1ccc2c(c1)ncn2Cc1nnc2sc(-c3ccc4c(c3)OCO4)nn12` next. 15.8 µM (inconclusive)

Try `COc1cc(/C=N/NC(=O)c2cccnc2)ccc1OC(=O)c1ccco1` next. 8.91 µM (inconclusive)

Try `Nc1nc(Cc2ccccc2)nc(Cc2ccccc2)c1-c1ccccc1` next. 6.31 µM (inconclusive)

====

Protocol notes: cells
Type: functional
Activity calls are given as the source filed them.
Value type: IC50

Entry `COc1ccc(C2(O)CCN(CCCCOc3ccccc3)CC2)cc1` : reported IC50 = ? 32.8 µM (active)

Try CCOC(=O)C(C)Oc1cc(Cl)c(C=O)cc1OC (centres undefined) next. 24.4 µM (active)

Try `O=C(COC(=O)COc1ccc(Nc2ccccc2)cc1)NCc1ccco1` next. 4.72 µM (active)

Try `C/C(=N\NC(=O)c1ccc([N+](=O)[O-])c(C)c1)c1ccccc1Cl` next. 42.2 µM (active)

====

Tested on: Heat shock factor protein 1 (Mus musculus, UniProt P38532)
Sequence (P38532 whole entry): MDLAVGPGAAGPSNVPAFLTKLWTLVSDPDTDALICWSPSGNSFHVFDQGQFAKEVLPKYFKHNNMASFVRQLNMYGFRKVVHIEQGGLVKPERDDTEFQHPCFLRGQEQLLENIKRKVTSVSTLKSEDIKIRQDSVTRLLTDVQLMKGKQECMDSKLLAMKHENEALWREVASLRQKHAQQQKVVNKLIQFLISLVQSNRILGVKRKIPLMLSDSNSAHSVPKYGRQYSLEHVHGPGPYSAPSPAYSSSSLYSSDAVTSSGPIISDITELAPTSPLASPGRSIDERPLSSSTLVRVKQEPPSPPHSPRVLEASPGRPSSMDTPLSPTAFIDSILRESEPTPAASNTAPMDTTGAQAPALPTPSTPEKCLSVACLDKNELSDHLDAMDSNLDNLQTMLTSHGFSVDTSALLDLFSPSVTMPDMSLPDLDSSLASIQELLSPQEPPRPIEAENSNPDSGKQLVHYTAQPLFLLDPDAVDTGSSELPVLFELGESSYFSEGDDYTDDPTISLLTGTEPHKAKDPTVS
Protocol notes: inhibition of MG132-induced HSE-luciferase signal, confirmation, cell-based, NIH3T3, luminescence, dose retest (AID 2382);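 further: NIH3T3 fibroblasts with HSF1-driven luciferase reporter stressed by proteasome inhibitor MG132; luminescence from HSF1-driven luciferase expression after 8 hours of MG132 stress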
Format: functional
Calls of active or inactive are those of the source.
Value type: EC50

State its EC50 on Heat shock factor protein 1 (Mus musculus, UniProt P38532): `Cc1cccc(N(Cc2ccccc2)C(=O)CCl)c1` 2.91 µM (active)

Try CCOC(=O)CN1CC23C=CC(O2)C(C(=O)NC2CCCCC2)C3C1=O (stereo not given) next. > 195 µM (not active)

Try `CC(C)(C)c1ccc(C(=O)NC(=S)Nc2nc3c(s2)CCCC3)cc1` next. 0.192 µM (active)

Try Cc1ccccc1NC(=O)N1C2CCCC1CC(NC(=O)C1CC1)C2 (stereo not given) next. > 195 µM (not active)

Try `CCN(CC)CCCN(C(=O)c1ccco1)c1nc(-c2ccc(C)cc2)cs1` next. > 195 µM (not active)

Try `O=C(CCCNC(=O)/C(=C\c1ccccc1F)NC(=O)c1ccccc1)OCc1ccccc1` next. > 195 µM (not active)

Try `Cc1ccc(C(=O)O/N=C(\N)c2ccccc2)c(Cl)c1` next. < 0.16 µM (active)

Try `CCOc1ccccc1NC(=O)Cn1c(-c2ccc(Cl)cc2)noc1=O` next. > 195 µM (not active)

Try `CCN1C(=O)C(=CNc2ccc(N3CCOCC3)c(Br)c2)C(=O)N(CC)C1=S` next. > 195 µM (not active)

Try `Cc1cc(/C(O)=C(/C([S-])=Nc2ccccc2)[n+]2ccccc2)c(C)n1-c1ccccc1` next. 2.53 µM (active)

Try `CC(C)C(=O)Nc1cccc(-c2nc3ncccc3o2)c1` next. > 195 µM (not active)

Try `CNC(=S)N/N=C/c1c(Cl)cccc1Cl` next. > 195 µM (not active)

Try `CCCCn1c(C)cc(C)c(S(=O)(=O)c2ccccc2C)c1=O` next. > 195 µM (not active)

Try `O=C(Nc1ccc([N+](=O)[O-])cc1)C1(c2ccccc2)CCOCC1` next. > 195 µM (not active)

Try `O=C(O)C(=O)Nc1ccc(NC(=O)C(c2ccccc2)c2ccccc2)cc1` next. > 195 µM (not active)

Try `COc1ccccc1C(=O)NCC(=O)N/N=C/c1ccc2c(c1)OCO2` next. > 195 µM (not active)

Try O=C(CCC1CCCNC1)c1ccccc1 (stereo not given) next. > 195 µM (not active)

Try CC(=O)NCC1=C(NC(C)=O)C2CC1C(C)(C)C2C (stereo not given) next. > 195 µM (not active)

Try `COCCCNC(=O)Cn1cnc2sc(C)c(S(=O)(=O)N3CCN(c4ccccc4OC)CC3)c2c1=O` next. > 195 µM (not active)

Try `CCc1cc(/C=N/C2CCCCC2)c(O)s1` next. > 195 µM (not active)

Try `Cc1ccc(C(=O)NCc2ccc(N3CCN(C)CC3)cc2)cc1C` next. > 195 µM (not active)

Try COc1ccc(C2=CC(c3ccc(OC)c(OC)c3)c3c(c4ccccc4oc3=O)O2)cc1OC (stereo not given) next. > 195 µM (not active)

Try `Nc1c2c(nc3ccccc13)N(c1ccccc1)CC2` next. > 195 µM (not active)

Try `CCCCN(C)C(=O)CCC(=O)Nc1ccc2nc(N3CCN(C)CC3)cc(C)c2c1` next. > 195 µM (not active)

Try `Cc1cc(N2CCN(C)CC2)nc2ccc(NC(=O)c3cccnc3Cl)cc12` next. > 195 µM (not active)
